Molecular target: phosphor-EGFR in H1975(L585R/T790M) mutant EGFR expressing cells (Homo sapiens, UniProt P00533, L858R/T790M)
Sequence (P00533 25-1210 T790M/L858R): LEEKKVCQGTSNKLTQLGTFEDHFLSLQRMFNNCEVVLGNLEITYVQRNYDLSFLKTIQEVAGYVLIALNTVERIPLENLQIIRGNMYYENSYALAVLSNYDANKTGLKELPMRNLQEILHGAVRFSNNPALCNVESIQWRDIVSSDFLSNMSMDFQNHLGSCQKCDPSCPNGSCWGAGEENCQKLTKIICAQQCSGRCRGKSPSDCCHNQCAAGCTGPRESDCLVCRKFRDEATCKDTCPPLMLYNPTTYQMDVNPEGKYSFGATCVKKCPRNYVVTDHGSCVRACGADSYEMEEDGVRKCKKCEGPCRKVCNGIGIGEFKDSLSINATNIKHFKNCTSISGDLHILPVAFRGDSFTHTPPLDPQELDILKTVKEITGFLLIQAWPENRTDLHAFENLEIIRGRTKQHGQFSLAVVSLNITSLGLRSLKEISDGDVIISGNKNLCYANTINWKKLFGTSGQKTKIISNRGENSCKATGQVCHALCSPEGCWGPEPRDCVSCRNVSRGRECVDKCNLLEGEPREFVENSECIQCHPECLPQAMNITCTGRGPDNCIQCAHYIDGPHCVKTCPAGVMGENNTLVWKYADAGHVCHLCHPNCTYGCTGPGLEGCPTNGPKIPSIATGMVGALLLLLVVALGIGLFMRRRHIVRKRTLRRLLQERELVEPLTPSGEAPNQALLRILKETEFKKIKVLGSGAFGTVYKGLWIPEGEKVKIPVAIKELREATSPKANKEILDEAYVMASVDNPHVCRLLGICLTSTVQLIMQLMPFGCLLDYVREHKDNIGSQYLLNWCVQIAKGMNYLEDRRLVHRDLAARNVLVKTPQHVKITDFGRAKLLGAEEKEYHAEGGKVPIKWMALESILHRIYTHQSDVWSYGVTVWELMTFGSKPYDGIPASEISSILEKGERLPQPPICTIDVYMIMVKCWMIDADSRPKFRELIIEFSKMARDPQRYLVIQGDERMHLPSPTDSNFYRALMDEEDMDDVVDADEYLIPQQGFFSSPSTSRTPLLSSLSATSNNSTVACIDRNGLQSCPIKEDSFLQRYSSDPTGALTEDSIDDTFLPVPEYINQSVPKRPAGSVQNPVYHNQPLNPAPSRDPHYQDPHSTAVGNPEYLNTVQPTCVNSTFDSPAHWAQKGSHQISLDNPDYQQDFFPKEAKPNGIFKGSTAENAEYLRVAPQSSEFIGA
Test: H1975 pEGFR MSD cellular assay
Conditions: NCI-H1975 cells, serum starved, 1 hour compound incubation, pEGFR Tyr1068 MSD; read-out: HI975 pEGFR EC50
Method: H1975 pEGFR MSD Cellular Assays These assays are intended for determining cellular. […] (Meso Scale Discovery Catalog# N31CB-1). […] The following day, test compounds are serially diluted in dimethyl sulfoxide (DMSO) and added to cells in serum free medium (final DMSO concentration 0.5%). […] The MSD Read Buffer is added such that when a voltage is applied to the plate electrodes, the labels bound to the electrode surface emit light. […]
quantity: EC50 (nM)

Inquiry: Query: EC50; subject: CC(C)n1nc(N2CC[C@@H](O)C2)c2cnc(Nc3ccnc(N4CCC(C)(O)CC4)n3)cc21 [Example 205]
Reply text: 287

Inquiry: Try CC(C)n1nc(N2CC(C(=O)NC3CC(O)C3)C2)c2cnc(Nc3ccnc(-c4cnn(S(=O)(=O)C5CC5)c4)n3)cc21 (stereo not shown) [Example 170] next.
Reply text: 731

Inquiry: Try CCC(C)n1nc(N2CC[C@@H](O)C2)c2cnc(Nc3ccnc(N4CCC(C)(O)CC4)n3)cc21 (stereo partly shown) [Example 203] next.
Reply text: 77

Inquiry: Try CCC(C)n1nc(N2CC3(COC3)C2)c2cnc(Nc3ccnc(N4CCC(C)(O)CC4)n3)cc21 (stereo not shown) [Example 202] next.
Reply text: 141

1: CC(C)n1nc(N2CC(F)(CO)C2)c2cnc(Nc3ccnc(N4CC[C@H](O)[C@H](F)C4)n3)cc21 (racemic) [Example 130]
2: CCS(=O)(=O)n1cc(-c2nccc(Nc3cc4c(cn3)c(N3CC(CO)C3)nn4C(C)C)n2)cn1 [Example 36]
3: CC(C)n1nc(N2CC(C)(O)C2)c2cnc(Nc3ccnc(-c4cnn(S(=O)(=O)C5CC5)c4)n3)cc21 [Example 82]
Inquiry: Endpoint returns the given molecules ordered by ascending EC50. Rank them, then answer with their labels in that order.
Reply text: 2, 3, 1

====

Biological target: EGFR T790M L858R (Homo sapiens, UniProt P00533, L858R/T790M)
Sequence (P00533 25-1210 T790M/L858R): as above
Test: EGFR T790M L858R biochemical assay (Caliper mobility shift)
Details: 5 μM ATP; apparent Ki (Morrison fit) converted by Cheng-Prusoff, Km of ATP 1.3 μM
Experimental: The exemplified compounds described herein were tested according to the assay below. The enzyme data reported in Tables 4-5 is generally a representative of multiple experiments. Reactions proceed for 30 minutes at room temperature (22° C.) and are terminated with 80 mM 2,2′,2″,2′″-(ethane-1,2-diyldinitrilo)tetraacetic acid (EDTA). Product is detected using the Caliper mobility shift detection method where product and substrate are electrophoretically separated and measured.
quantity: Ki (nM)

Example compounds with recorded Ki:
Inquiry: Query: Ki; subject: CC(C)n1nc(N2CC[S+]([O-])CC2)c2cnc(Nc3ccnc(-c4cnn(S(=O)(=O)C5CC5)c4)n3)cc21 [Example 110]
Reply text: 1.7

Inquiry: Try CC(C)n1nc(N2CC3(COC3)C2)c2cnc(Nc3ccnc(N4CC[C@](C)(O)[C@H](F)C4)n3)cc21 (racemic) [Example 64] next.
Reply text: 3.6

Inquiry: Try CC(C)n1nc(N2CC[C@@H](C#N)C2)c2cnc(Nc3ccnc(-c4cnn(S(=O)(=O)C5CC5)c4)n3)cc21 [Example 28] next.
Reply text: 0.8

Inquiry: Try Cc1cn[nH]c1-c1nn(C(C)C)c2cc(Nc3ccnc(N4CCC(O)C(C)(C)C4)n3)ncc12 (stereo not shown) [Example 10] next.
Reply text: 7.5

A: COCCNC(=O)C1CN(c2nn(C(C)C)c3cc(Nc4ccnc(-c5cnn(S(=O)(=O)C6CC6)c5)n4)ncc23)C1 [Example 30]
B: CCC(C)n1nc(N2C[C@@H](F)[C@@H](N)C2)c2cnc(Nc3ccnc(N4CCC(C)(O)CC4)n3)cc21 (relative stereo) [Example 177]
C: CCC(C)n1nc(N2CC[C@@H](O)C2)c2cnc(Nc3ccnc(N4CCC5(CC4)CNC(=O)CO5)n3)cc21 (single isomer, unassigned) [Example 207]
Inquiry: Highest Ki first, then in falling order down to the smallest. Rank them, then answer with their labels in that order.
Reply text: C, B, A

====

Molecular target: phosphor-EGFR in H1975(L585R/T790M) mutant EGFR expressing cells (Homo sapiens, UniProt P00533, L858R/T790M)
Assay: H1975 pEGFR MSD cellular assay
Settings: NCI-H1975 cells, serum starved, 1 hour compound incubation, pEGFR Tyr1068 MSD; read-out: HI975 pEGFR EC50
pEC50: −log10 of the molar value.
quantity: pEC50

Example compounds with recorded pEC50:
Inquiry: Query: pEC50; subject: CC(C)n1nc(N2CCC3(CCNC3=O)C2)c2cnc(Nc3ccnc(-c4cnn(S(=O)(=O)C5CC5)c4)n3)cc21 (stereo not shown) [Example 112]
Reply text: 7.20

Inquiry: Try CC(C)n1nc(N[C@H]2CCOC2)c2cnc(Nc3ccnc(-c4cnn(S(=O)(=O)C5CC5)c4)n3)cc21 [Example 39] next.
Reply text: 7.15

Inquiry: Try CC(C)n1nc(NCCC(N)=O)c2cnc(Nc3ccnc(-c4cnn(S(=O)(=O)C5CC5)c4)n3)cc21 [Example 47] next.
Reply text: 6.06

Inquiry: Try CC(C)n1nc(N2CC3CCC(C2)O3)c2cnc(Nc3ccnc(-c4cnn(S(=O)(=O)C5CC5)c4)n3)cc21 [Example 73] next.
Reply text: 6.90

A: CC(C)n1nc(N2CCNC2=O)c2cnc(Nc3ccnc(N4CCC(O)C(F)C4)n3)cc21 (racemic) [Example 22]
B: CC(C)n1nc(N2CCOCC2)c2cnc(Nc3ccnc(-c4cnn(S(=O)(=O)C5CC5)c4)n3)cc21 [Example 51]
C: CC(C)c1nn(C(C)C)c2cc(Nc3ccnc(-c4cnn(S(=O)(=O)C5CC5)c4)n3)ncc12 [Example 50]
Inquiry: Endpoint returns the given compounds ordered by ascending pEC50. Rank them, then answer with their labels in that order.
Reply text: C, A, B
(C: 5.62, A: 6.31, B: 7.13)

====

Target: EGFR T790M L858R (Homo sapiens, UniProt P00533, L858R/T790M)
Assay: EGFR T790M L858R biochemical assay (Caliper mobility shift)
Details: 5 μM ATP; apparent Ki (Morrison fit) converted by Cheng-Prusoff, Km of ATP 1.3 μM
Procedure: The exemplified compounds described herein were tested according to the assay below. The enzyme data reported in Tables 4-5 is generally a representative of multiple experiments. Reactions proceed for 30 minutes at room temperature (22° C.) and are terminated with 80 mM 2,2′,2″,2′″-(ethane-1,2-diyldinitrilo)tetraacetic acid (EDTA). Product is detected using the Caliper mobility shift detection method where product and substrate are electrophoretically separated and measured.
quantity: Ki (nM)

Example compounds with recorded Ki:
Inquiry: Query: Ki; subject: "CC(C)n1nc(F)c2cnc(Nc3ccnc(-c4cnn(S(=O)(=O)C5CC5)c4)n3)cc21"
Reply text: 298

Inquiry: Try CCC(C)n1nc(N2CCNC2=O)c2cnc(Nc3ccnc(-c4cnn(S(=O)(=O)C5CC5)c4)n3)cc21 (stereo not shown) next.
Reply text: 1

Inquiry: Try "CC(C)n1nc(N2CCN(C)C2=O)c2cnc(Nc3ccnc(-c4cnn(S(=O)(=O)C5CC5)c4)n3)cc21" next.
Reply text: 1.3

Inquiry: Try "CC(C)n1nc(NC2CCOCC2)c2cnc(Nc3ccnc(-c4cnn(S(=O)(=O)C5CC5)c4)n3)cc21" next.
Reply text: 2.2

Inquiry: Try CC(C)n1nc(N2CC(C(=O)N(C)C)C2)c2cnc(Nc3ccnc(N4CCC(O)C(C)(C)C4)n3)cc21 (stereo not shown) next.
Reply text: 1.2

Inquiry: Try "CC(C)n1nc(N[C@@H]2CCOC2)c2cnc(Nc3ccnc(-c4cnn(S(=O)(=O)C5CC5)c4)n3)cc21" next.
Reply text: 1.1

Inquiry: Try "CC(C)n1nc(N2CC3(C2)C[S+]([O-])C3)c2cnc(Nc3ccnc(N4CCC(C)(O)CC4)n3)cc21" next.
Reply text: 4.6

Inquiry: Try "CC(C)n1ncc2cnc(Nc3ccnc(-c4cnn(CC5CC5)c4)n3)cc21" next.
Reply text: 35.6

1: CC(C)n1nc(N2CC[C@@H](CO)C2)c2cnc(Nc3ccnc(-c4cnn(S(=O)(=O)C5CC5)c4)n3)cc21
2: CC(C)n1nc(N2CCO[C@@H](CO)C2)c2cnc(Nc3ccnc(N4CCC(O)C(F)C4)n3)cc21 (mixture of isomers)
Inquiry: Just curious, which one has the larger Ki reading, 1 or 2 ? Lab log: write the label of the selected item as the result.
Reply text: 2

A: CCC(C)n1nc(N2C[C@H](O)[C@@H](F)C2)c2cnc(Nc3ccnc(N4CCC(C)(O)CC4)n3)cc21 (relative stereo)
B: CC[C@H](C)n1nc(N2CC3(COC3)C2)c2cnc(Nc3ccnc(N4CC[C@](C)(O)[C@H](F)C4)n3)cc21 (relative stereo)
C: CC(C)n1nc(NCCC2OCC(N)CO2)c2cnc(Nc3ccnc(N4CCC(C)(O)CC4)n3)cc21 (stereo not shown)
D: CC(C)n1nc(N2CC(N)CC2=O)c2cnc(Nc3ccnc(N4CCC(C)(O)CC4)n3)cc21 (stereo not shown)
E: CC(C)n1nc(NC(C)(C)C(N)=O)c2cnc(Nc3ccnc(N4CC[C@H](O)[C@H](F)C4)n3)cc21 (racemic)
Inquiry: Endpoint returns the given compounds ordered by ascending Ki. Rank them, then answer with their labels in that order.
Reply text: A, B, C, D, E

I: CC(C)n1nc(N2CC3(COC3)C2)c2cnc(Nc3ccnc(N4CCC(O)C(F)C4)n3)cc21 (racemic)
II: CC(Nc1nn(C(C)C)c2cc(Nc3ccnc(-c4cnn(S(=O)(=O)C5CC5)c4)n3)ncc12)C(N)=O (stereo not shown)
III: CCN1CCN(c2nn(C(C)C)c3cc(Nc4ccnc(-c5cnn(S(=O)(=O)C6CC6)c5)n4)ncc23)C1=O
Inquiry: Highest Ki first, then in falling order down to the smallest. Rank them, then answer with their labels in that order.
Reply text: III, II, I
(III: 8.7 nM, II: 1.8 nM, I: 1.2 nM)

I: CC(C)n1nc(N2CC(C)(O)C2)c2cnc(Nc3ccnc(-c4cnn(S(=O)(=O)C5CC5)c4)n3)cc21
II: CC(C)n1nc(N2CCN(C)C2=O)c2cnc(Nc3ccnc(N4CCC(O)C(F)C4)n3)cc21 (stereo not shown)
Inquiry: Just curious, which one has the larger Ki reading, I or II ? Lab log: write the label of the selected item as the result.
Reply text: II
